Tested on: S. epidermidis biofilm
PROTOCOL TEXT: S. epidermidis biofilm assay (activity tables)
Format: cell-based, Staphylococcus epidermidis
CONDITION PARAMETERS: Furan analogues table
PROPERTY LABEL: MIC S. epidermidis Biofilm (µM)

                                   compound       target_under_test  endpoint_result
0  O=C(Nc1ncc([N+](=O)[O-])s1)c1ccc(-c2ccccc2C(F)(F)F)o1 [VPC161196]  S. epidermidis biofilm              5.7
1  O=C(Nc1ncc([N+](=O)[O-])s1)c1ccc(-c2cccc([N+](=O)[O-])c2)o1 [VPC161190]  S. epidermidis biofilm             11.1
2  O=C(Nc1ncc([N+](=O)[O-])s1)c1cc(Br)c(Br)o1 [VPC161164]  S. epidermidis biofilm             20.2
3  O=C(Nc1ncc([N+](=O)[O-])s1)c1ccco1 [VPC161124]  S. epidermidis biofilm             66.9
4  O=C(Nc1ncc([N+](=O)[O-])s1)c1ccc(-c2ccc([N+](=O)[O-])cc2)o1 [VPC161189]  S. epidermidis biofilm             11.1

---

Test system: S. epidermidis
PROTOCOL TEXT: MIC testing by broth dilution, S. epidermidis plank
Type: cell-based, Staphylococcus epidermidis
CONDITION PARAMETERS: broth dilution, Trypticase Soy, 24 h; read-out: MIC (μM) S. epidermidis Plank
Below, each of the compounds is paired with its reported log10 MIC value.
PROPERTY LABEL: log10 MIC (log10 of the value in µM)

                            smiles_structure  target_under_test  property_label  endpoint_result
 0  Cn1c(C(=O)Nc2ncc([N+](=O)[O-])s2)cc2ccccc21     S. epidermidis       log10 MIC             2.02
 1  O=C(Nc1ncc([N+](=O)[O-])s1)c1cccc(OC(F)(F)F)c1     S. epidermidis       log10 MIC             1.08
 2  O=C(COc1ccccc1C(=O)Nc1ncc([N+](=O)[O-])s1)NCCN1CCOCC1     S. epidermidis       log10 MIC             1.44
 3              CC(=O)Nc1ncc([N+](=O)[O-])s1     S. epidermidis       log10 MIC             1.33
 4        CCCCCCCC(=O)Nc1ncc([N+](=O)[O-])s1     S. epidermidis       log10 MIC             1.05
 5  O=C(C=Cc1ccc(C(F)(F)F)cc1)Nc1ncc([N+](=O)[O-])s1     S. epidermidis       log10 MIC             0.46
 6      Nc1ccccc1C(=O)Nc1ncc([N+](=O)[O-])s1     S. epidermidis       log10 MIC             1.96
 7    O=C(C=Cc1ccccc1)Nc1ncc([N+](=O)[O-])s1     S. epidermidis       log10 MIC             1.46
 8  O=C(Nc1ncc([N+](=O)[O-])s1)c1cc(C(F)(F)F)cc(C(F)(F)F)c1     S. epidermidis       log10 MIC             0.28
 9  Cl.O=C(Nc1ncc([N+](=O)[O-])s1)c1ccccc1OCCNC(=O)C1CCNCC1     S. epidermidis       log10 MIC             1.85
10  O=C(Nc1ncc([N+](=O)[O-])s1)c1ccc([N+](=O)[O-])cc1     S. epidermidis       log10 MIC             1.01
11  CC(=O)Oc1cc(C#N)ccc1C(=O)Nc1ncc([N+](=O)[O-])s1     S. epidermidis       log10 MIC             1.98
12      O=C(Nc1ncc([N+](=O)[O-])s1)c1ccncc1F     S. epidermidis       log10 MIC             2.08
13  O=C(O)COc1ccc(C(=O)Nc2ncc([N+](=O)[O-])s2)cc1     S. epidermidis       log10 MIC             2.00
14  O=C(COc1ccccc1C(=O)Nc1ncc([N+](=O)[O-])s1)Nc1ccccc1     S. epidermidis       log10 MIC             1.90
15  O=C(Nc1ncc([N+](=O)[O-])s1)c1ccc(C(F)(F)F)cc1[N+](=O)[O-]     S. epidermidis       log10 MIC             1.95
16  N#Cc1cccc(C(=O)Nc2ncc([N+](=O)[O-])s2)c1     S. epidermidis       log10 MIC             1.47
17  O=C(Nc1ncc([N+](=O)[O-])s1)c1cccc([N+](=O)[O-])c1O     S. epidermidis       log10 MIC             1.89
18       O=C(Nc1ncc([N+](=O)[O-])s1)c1cccnc1     S. epidermidis       log10 MIC             2.11

---

System: E. coli biofilm
PROTOCOL TEXT: E. coli biofilm assay (activity tables)
Type: cell-based, Escherichia coli
CONDITION PARAMETERS: biofilm; Thiophene analogues table; read-out: MIC E. coli Biofilm
PROPERTY LABEL: log10(MIC) (log10 of the value in µM)

>>> df
                                   molecule  endpoint_result
0  CC(=O)Oc1ccccc1C(=O)Nc1ncc([N+](=O)[O-])s1 [Nitazoxanide, reference compound]             1.41
1  O=C(Nc1ncc([N+](=O)[O-])s1)c1ncc([N+](=O)[O-])s1 [VPC161280]             0.52
2  O=C(Nc1ncc([N+](=O)[O-])s1)c1cc(Cl)sc1Cl [VPC161199]             1.39
3  O=C(Nc1ncc([N+](=O)[O-])s1)c1sc2cc(F)ccc2c1Cl [VPC161115]             0.75
4  O=C(Nc1ncc([N+](=O)[O-])s1)c1cc2ccccc2s1 [VPC161180]             2.02

---

Tested on: MRSA
PROTOCOL TEXT: MIC testing by broth dilution, MRSA
Type: cell-based, Staphylococcus aureus
CONDITION PARAMETERS: Thiophene analogues table; read-out: MIC MRSA
// classify: if (MIC < 7 µM) 1 else -1

>>> df
                                   molecule  target_under_test  discrete_label
0  O=C(Nc1ncc([N+](=O)[O-])s1)c1ncc([N+](=O)[O-])s1               MRSA              -1
1  Cc1cccc(-c2ccc(C(=O)Nc3ncc([N+](=O)[O-])s3)s2)c1               MRSA              -1
2  O=C(Nc1ncc([N+](=O)[O-])s1)c1cc2ccccc2s1               MRSA               1
3  CC(=O)Oc1ccccc1C(=O)Nc1ncc([N+](=O)[O-])s1 [Nitazoxanide, reference compound]               MRSA              -1
4  O=C(Nc1ncc([N+](=O)[O-])s1)c1cc(Cl)sc1Cl               MRSA               1

---

System: PFOR (pyruvate ferredoxin oxidoreductase)
PROTOCOL TEXT: Direct PFOR enzyme assay
Assay type: biochemical
Where a name gives a salt, the structure may show the parent alone.
PROPERTY LABEL: PFOR inhibition relative to nitazoxanide (=100) (%)

In [3]: df
Out[3]:
                                   compound  unit_spec  endpoint_result
0  NCCOc1ccccc1C(=O)Nc1ncc([N+](=O)[O-])s1 [VPC161219, hydrochloride]          %              114
1  O=C(Nc1ncc([N+](=O)[O-])s1)c1cc(C(F)(F)F)ccc1Cl          %               68
2   O=C(Nc1nc(Cl)c([N+](=O)[O-])s1)c1ccccc1          %              107
3  COc1cc([N+](=O)[O-])ccc1C(=O)Nc1ncc([N+](=O)[O-])s1          %              115
4    O=C(Nc1nc(Cl)c([N+](=O)[O-])s1)c1cccs1          %               93
5    O=C(Nc1ncc([N+](=O)[O-])s1)c1ccc(F)cc1          %               99
6    O=C(C=Cc1ccccc1)Nc1ncc([N+](=O)[O-])s1          %               93
7  CC(=O)Oc1ccccc1C(=O)Nc1ncc([N+](=O)[O-])s1 [Nitazoxanide, reference compound]          %              100
